// values below are reported pKd
molecular target: recombinant cynomolgus BCMA Fc(kih) (cynomolgus, UniProt A0A2K5UD97 4-51); assay: SPR one-shot kinetics (ProteOn XPR36), IgG captured from HEK293 supernatant via anti-human F(ab)2, BCMA as analyte
Sequence (A0A2K5UD97 entry or part of it): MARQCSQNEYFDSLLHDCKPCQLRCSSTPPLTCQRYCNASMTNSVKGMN
The meaning of pKd here: minus log10 of the concentration in molar units.

{"binder": "Mab 42 IgG (antibody, V domains shown, also called antibody 42; clone 42) VH: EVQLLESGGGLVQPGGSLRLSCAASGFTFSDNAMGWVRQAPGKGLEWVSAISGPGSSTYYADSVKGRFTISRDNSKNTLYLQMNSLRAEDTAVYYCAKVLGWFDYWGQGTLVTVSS VL: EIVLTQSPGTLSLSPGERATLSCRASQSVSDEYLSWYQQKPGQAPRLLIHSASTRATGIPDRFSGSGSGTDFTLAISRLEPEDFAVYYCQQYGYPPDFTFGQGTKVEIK", "quantity_kind": "pKd", "readout_value": 9.41}
{"binder": "Mab 27 IgG (antibody, V domains shown) VH: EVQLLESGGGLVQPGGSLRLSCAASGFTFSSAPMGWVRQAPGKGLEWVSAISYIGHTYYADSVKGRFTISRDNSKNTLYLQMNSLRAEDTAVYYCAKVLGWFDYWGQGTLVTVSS VL: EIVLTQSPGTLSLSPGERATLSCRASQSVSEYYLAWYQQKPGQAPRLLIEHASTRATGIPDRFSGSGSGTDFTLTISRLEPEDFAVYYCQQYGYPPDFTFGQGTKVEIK", "quantity_kind": "pKd", "readout_value": 10.00}

[in] Let me know recorded pKd for Mab 21 IgG (antibody, V domains shown, also called antibody 21) VH: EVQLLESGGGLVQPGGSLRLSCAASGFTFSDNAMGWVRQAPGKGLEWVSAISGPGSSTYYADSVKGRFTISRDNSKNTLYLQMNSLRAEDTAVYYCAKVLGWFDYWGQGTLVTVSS VL: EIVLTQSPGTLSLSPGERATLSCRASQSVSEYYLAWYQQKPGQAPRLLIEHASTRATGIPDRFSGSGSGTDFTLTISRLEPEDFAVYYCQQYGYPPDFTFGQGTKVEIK , thanks.
[out] 10.29
